measured.target: cannabinoidergic CB1 receptors (Rattus norvegicus, UniProt P20272)
Construct: the brain in toto (cerebellum excluded) and the spleen were rapidly dissected and maintained in ice; from tissue; host or cells: rat brain (cerebellum excluded), membrane preparation
Sequence (P20272 whole entry): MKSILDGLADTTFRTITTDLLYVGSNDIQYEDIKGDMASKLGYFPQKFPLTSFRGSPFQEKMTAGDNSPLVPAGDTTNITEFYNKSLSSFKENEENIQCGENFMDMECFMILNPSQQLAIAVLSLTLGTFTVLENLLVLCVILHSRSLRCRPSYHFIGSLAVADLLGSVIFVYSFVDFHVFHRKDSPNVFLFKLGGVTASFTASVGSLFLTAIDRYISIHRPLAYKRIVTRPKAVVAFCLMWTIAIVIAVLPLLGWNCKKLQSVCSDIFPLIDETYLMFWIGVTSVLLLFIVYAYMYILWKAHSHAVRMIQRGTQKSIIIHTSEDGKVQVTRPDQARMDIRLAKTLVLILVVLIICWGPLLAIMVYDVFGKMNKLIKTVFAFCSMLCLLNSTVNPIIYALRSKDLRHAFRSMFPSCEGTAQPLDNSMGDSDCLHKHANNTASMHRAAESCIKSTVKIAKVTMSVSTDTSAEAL
method.description: Radioreceptorial binding, [3H]-CP-55,940 competition, rat brain membranes
measured.attribute: Ki (nM)
I only need the number, in nM, no unit after it.

Report Ki from cannabinoidergic CB1 receptors (Rattus norvegicus, UniProt P20272) testing of O=C(NN1CCCCCC1)c1nn(-c2ccc(Cl)cc2Cl)c2c1CCc1sc(Cl)cc1-2 [Example 3.6] 9.83

----------
measured.target: cannabinoidergic CB1 receptors (Rattus norvegicus, UniProt P20272)
Construct: the brain in toto (cerebellum excluded) and the spleen were rapidly dissected and maintained in ice; from tissue; host or cells: rat brain (cerebellum excluded), membrane preparation
method.description: Radioreceptorial binding, [3H]-CP-55,940 competition, rat brain membranes
condition.info: rat brain membranes, 1 nM [3H]-CP55,940; read-out: CB1 (brain) Ki
measured.attribute: Ki (nM)
I only need the number, in nM, no unit after it.

O=C(NN1CCCC1)c1nn(-c2ccc(Cl)cc2Cl)c2c1CCc1sc(Cl)cc1-2 :: 137
O=C(NN1CCCC1)c1nn(-c2ccc(Cl)cc2Cl)c2c1CCc1sc(Br)cc1-2 :: 126
O=C(NN1CCCCCC1)c1nn(-c2ccc(Cl)cc2Cl)c2c1CCc1sc(Br)cc1-2 :: 9.6
O=C(NN1CCCCC1)c1nn(-c2ccc(Cl)cc2Cl)c2c1CCc1sc(Cl)cc1-2 :: 44.3
O=C(NN1CCCCC1)c1nn(-c2ccc(Cl)cc2Cl)c2c1CCc1sc(Br)cc1-2 :: 4.47
Cc1cc2c(s1)CCc1c(C(=O)NN3CCCCC3)nn(-c3ccc(Cl)cc3Cl)c1-2 :: 7.88

// next item, Ki requested
Item Cc1cc2c(s1)CCc1c(C(=O)NN3CCCCCC3)nn(-c3ccc(Cl)cc3Cl)c1-2 : provide Ki 57

----------
measured.target: cannabinoidergic CB2 receptors (Rattus norvegicus, UniProt Q9QZN9)
Construct: the brain in toto (cerebellum excluded) and the spleen were rapidly dissected and maintained in ice; from tissue; host or cells: rat spleen, membrane preparation
Sequence (Q9QZN9 1-360): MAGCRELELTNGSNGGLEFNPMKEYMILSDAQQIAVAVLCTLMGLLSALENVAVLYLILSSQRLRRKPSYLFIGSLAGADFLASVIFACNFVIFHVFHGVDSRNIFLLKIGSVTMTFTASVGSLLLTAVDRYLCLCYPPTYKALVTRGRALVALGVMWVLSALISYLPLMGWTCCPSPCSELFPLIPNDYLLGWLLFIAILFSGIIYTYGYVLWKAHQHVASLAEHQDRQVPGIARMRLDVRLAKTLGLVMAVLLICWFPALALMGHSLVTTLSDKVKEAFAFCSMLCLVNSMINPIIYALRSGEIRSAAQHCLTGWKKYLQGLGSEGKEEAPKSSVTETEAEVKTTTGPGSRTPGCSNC
method.description: Radioreceptorial binding, [3H]-CP-55,940 competition, rat spleen membranes
measured.attribute: pKi
pKi here is simply -log10 of the concentration when that concentration is written in mol/L.

Report pKi from cannabinoidergic CB2 receptors (Rattus norvegicus, UniProt Q9QZN9) testing of O=C(NN1CCCCCC1)c1nn(-c2ccc(Cl)cc2Cl)c2c1CCc1sc(Cl)cc1-2 7.68

----------
measured.attribute: melting point

Here's what some known entries look like.
O=C(NN1CCCC1)c1nn(-c2ccc(Cl)cc2Cl)c2c1CCc1sc(Br)cc1-2 :: 227 °C
Cc1cc2c(s1)CCc1c(C(=O)NN3CCCCCC3)nn(-c3ccc(Cl)cc3Cl)c1-2 :: 229 °C
O=C(NN1CCCC1)c1nn(-c2ccc(Cl)cc2Cl)c2c1CCc1sc(Cl)cc1-2 :: 228 °C
O=C(NN1CCCCCC1)c1nn(-c2ccc(Cl)cc2Cl)c2c1CCc1sc(Cl)cc1-2 :: 181 to 182 °C
Cc1cc2c(s1)CCc1c(C(=O)NN3CCCCC3)nn(-c3ccc(Cl)cc3Cl)c1-2 :: 216 °C

// next item, melting point requested
Item O=C(NN1CCCCCC1)c1nn(-c2ccc(Cl)cc2Cl)c2c1CCc1sc(Br)cc1-2 : provide melting point 176 °C

----------
pKi by entry:
measured.target: cannabinoidergic CB2 receptors (Rattus norvegicus)
Construct: the brain in toto (cerebellum excluded) and the spleen were rapidly dissected and maintained in ice; from tissue; host or cells: rat spleen, membrane preparation
method.description: Radioreceptorial binding, [3H]-CP-55,940 competition, rat spleen membranes
condition.info: rat spleen membranes, 1 nM [3H]-CP55,940; read-out: CB2 (spleen) Ki
pKi here is simply -log10 of the concentration when that concentration is written in mol/L.

Item Cc1cc2c(s1)CCc1c(C(=O)NN3CCCCCC3)nn(-c3ccc(Cl)cc3Cl)c1-2 : provide pKi 7.24

Item O=C(NN1CCCCC1)c1nn(-c2ccc(Cl)cc2Cl)c2c1CCc1sc(Cl)cc1-2 : provide pKi 7.17

Item O=C(NN1CCCCC1)c1nn(-c2ccc(Cl)cc2Cl)c2c1CCc1sc(Br)cc1-2 : provide pKi 7.43

Item O=C(NN1CCCC1)c1nn(-c2ccc(Cl)cc2Cl)c2c1CCc1sc(Br)cc1-2 : provide pKi 6.71

Item O=C(NN1CCCCCC1)c1nn(-c2ccc(Cl)cc2Cl)c2c1CCc1sc(Br)cc1-2 : provide pKi 7.22

Item O=C(NN1CCCC1)c1nn(-c2ccc(Cl)cc2Cl)c2c1CCc1sc(Cl)cc1-2 : provide pKi 6.61

Item Cc1cc2c(s1)CCc1c(C(=O)NN3CCCCC3)nn(-c3ccc(Cl)cc3Cl)c1-2 : provide pKi 7.26
